Molecular target: T1, CD30-Fc (human)
T1 construct: also called extracellular domain of CD30 fused with human IgG Fc
T1 chain: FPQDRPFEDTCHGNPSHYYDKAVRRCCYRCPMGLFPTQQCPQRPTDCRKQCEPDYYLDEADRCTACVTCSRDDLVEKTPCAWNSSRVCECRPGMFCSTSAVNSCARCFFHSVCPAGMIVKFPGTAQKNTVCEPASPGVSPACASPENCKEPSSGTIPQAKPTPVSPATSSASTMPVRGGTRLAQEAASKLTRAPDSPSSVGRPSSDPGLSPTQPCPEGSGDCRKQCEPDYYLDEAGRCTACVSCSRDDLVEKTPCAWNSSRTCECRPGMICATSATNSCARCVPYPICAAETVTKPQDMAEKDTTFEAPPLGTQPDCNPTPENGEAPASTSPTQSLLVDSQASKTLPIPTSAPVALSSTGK
Test: indirect ELISA, CD30-Fc coated
Each entry below carries its reported titer in ELISA.
The reply should contain only the number, in mL/µg.

Binder	titer in ELISA / mL/µg
T6 MAb (antibody, V domains shown) VH: QVQLKESGPGLVTPSQSLSITCTVSGFSLSKYSIHWVRQPPGRGLEWLGMIWGVENTDYNSALKSRLSISKDNSKSQVFLKMNSLQSDDTAMYYCARKDLGLYGMNYWGQGISVTVSA VL: DIVMTQSQKFMSTSVGDRVSVTCKASQNVGTNVAWYQQKPGQSPKALFYSASYRYSGVPDRFIGSGSGTVFTLTISNVQSEDLAEYFCQQYNTYPLTFGSGTKLEIER	40

Data point: T25 MAb (antibody, V domains shown) VH: QVTLKESGPGILQPSQTLSLTCSFSGFSLNTSGVGVGWIRQPSGKGLEWLAHIWWDDDERYNPVLKSRLTISKDTSSNQVFLKIANVDTADSATYYCVRSMVAWFPYWGRGTLVTVSA VL: DIVMSQSPSSLAVSVGEKFTVNCKSSQSLLYSSNQKNFLAWYQQKPGQSPKLLIYWASTRESGVPDRFIGSGSGTDFTLTISSVKAEDLAVYYCQQHYRYPWTFGGGTKLEIKR ; titer in ELISA = 50

For T24 MAb (antibody, V domains shown) VH: QVQLQQPGAELVRPGASVKLSCKASGYSFTSYWIDWVKQRPGQGLEWIGNIYPSNAYTNYNQKFKDKATLTVDKSSSTAYMQLSSPTSEDSAVYYCTSVLDYFYAMDYWGQGTSVTVSS VL: DIQMTQTTSSLSASLGDRVTISCRASQDISNYLNWYQQKPDGTVKLLIYYTSRLHSGVPSRFSGSGSGTDYSLTISNLEQEDIATYFCQQVNTLPRTFGGGTKLEIKR the binder record lists titer in ELISA as 179

Notebook: T13 MAb (antibody, V domains shown) VH: QVQLQQSGAELAKPGASVKMSCKASGYTFTTYWMHWVKQRPGQGLEWIGYINPSTGYTDYNEKFKDKATLTADKSSSTAYMQLSSLTSEDSAVYYCVRRGSYDGNPFAYWGQGTLVSVSA VL: DIVMTQSHKFMSTSVGDRVTITCKASQDVSTAVAWYQQKPGHSPKLLIYWASTRHTGVPDRFTGSGSGTDYTLTISSVQVEDLALYYCQQHYSTPFTFGSGTKLEIKR , titer in ELISA read as 91.2
